The values you see were collected from patent US10660877B2.

# Target under test: human TLR9 (Homo sapiens (Human), UniProt Q9NR96)
# Sequence (Q9NR96 26-1032): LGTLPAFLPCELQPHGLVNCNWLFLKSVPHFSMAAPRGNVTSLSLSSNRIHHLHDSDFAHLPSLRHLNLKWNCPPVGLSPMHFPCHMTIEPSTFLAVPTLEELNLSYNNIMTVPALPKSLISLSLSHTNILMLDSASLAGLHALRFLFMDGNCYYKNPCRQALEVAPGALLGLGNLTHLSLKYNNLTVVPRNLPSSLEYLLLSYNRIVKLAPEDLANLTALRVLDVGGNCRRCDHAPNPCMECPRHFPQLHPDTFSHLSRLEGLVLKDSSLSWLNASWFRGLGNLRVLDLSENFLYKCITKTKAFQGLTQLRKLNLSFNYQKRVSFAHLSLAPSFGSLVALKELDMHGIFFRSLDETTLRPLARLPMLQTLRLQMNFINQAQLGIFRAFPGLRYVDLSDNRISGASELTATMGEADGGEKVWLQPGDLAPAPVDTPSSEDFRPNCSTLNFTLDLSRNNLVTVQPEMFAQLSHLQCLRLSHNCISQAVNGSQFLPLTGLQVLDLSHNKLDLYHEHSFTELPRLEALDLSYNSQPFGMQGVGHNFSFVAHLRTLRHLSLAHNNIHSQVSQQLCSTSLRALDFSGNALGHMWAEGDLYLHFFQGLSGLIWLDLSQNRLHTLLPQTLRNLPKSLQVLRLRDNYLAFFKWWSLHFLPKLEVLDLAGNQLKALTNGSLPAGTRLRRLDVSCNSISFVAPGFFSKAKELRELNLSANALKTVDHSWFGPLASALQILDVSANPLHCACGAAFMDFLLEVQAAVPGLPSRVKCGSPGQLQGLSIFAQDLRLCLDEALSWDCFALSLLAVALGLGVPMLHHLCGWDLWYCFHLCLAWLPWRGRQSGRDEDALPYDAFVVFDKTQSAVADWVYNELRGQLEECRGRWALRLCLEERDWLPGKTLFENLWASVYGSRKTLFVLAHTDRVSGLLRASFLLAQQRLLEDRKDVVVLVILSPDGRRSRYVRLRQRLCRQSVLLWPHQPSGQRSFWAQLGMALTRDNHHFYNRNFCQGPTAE
# Measurement protocol: TLR9 inhibition reporter assay (HEK-Blue cells, SEAP reporter, ODN2006 stimulation);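 also: compounds tested over 0.05 nM to 50 µM, 22 h incubation, inhibition taken as SEAP signal drop from agonist plus DMSO wells toward a known inhibitor control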
# Conditions: read-out: TLR9 IC50, HEK-Blue cells overexpressing human TLR9, ODN2006 5 nM
Property name: pIC50
# pIC50 = -log10(concentration in molar units)

What reported pIC50 corresponds to COc1cc(-c2[nH]c3ccc(C4CCN(C)CC4)cc3c2C(C)C)ccn1 on human TLR9 (Homo sapiens (Human), UniProt Q9NR96)? 5.48

Hello, I am looking for reported pIC50 with human TLR9 (Homo sapiens (Human), UniProt Q9NR96) for Cc1nccc(-c2[nH]c3ccc(C4CCNCC4)cc3c2C(C)C)c1C . Could you help? 6.15

Given the entry CNCCN1CCC(c2ccc3[nH]c(-c4cc(Cl)ncc4OC)c(C)c3c2)CC1 , what pIC50 was observed with human TLR9 (Homo sapiens (Human), UniProt Q9NR96)? 5.89

What is its pIC50 for human TLR9 (Homo sapiens (Human), UniProt Q9NR96)? Entry: CCc1c(-c2ccnc(C)c2)[nH]c2ccc(C3CCN(C(=O)CCC4CCNCC4)CC3)cc12 6.10

Find the measured pIC50: item Cc1cc(-c2[nH]c3ccc(C4CCN(C(=O)[C@H]5CC[C@H](N)CC5)CC4)cc3c2C(C)C)ccn1 , target or system human TLR9 (Homo sapiens (Human), UniProt Q9NR96). 6.22

Query the reported pIC50 for human TLR9 (Homo sapiens (Human), UniProt Q9NR96); item: CNCCN1CCC(c2ccc3[nH]c(-c4ccnc(OC)c4)c(CC4CC4)c3c2)CC1 6.16

Provide value of pIC50 for this record tested with human TLR9 (Homo sapiens (Human), UniProt Q9NR96): COc1c(-c2[nH]c3ccc(C4CCNCC4)cc3c2C(C)C)cc[n+]([O-])c1C 5.75

For human TLR9 (Homo sapiens (Human), UniProt Q9NR96), provide pIC50 of CCc1c(-c2ccnc(C)c2)[nH]c2ccc(C3CCN(C[C@@H]4CCNC4)CC3)cc12 please. 7.02

What reported pIC50 corresponds to CC(C)c1c(-c2cc(C3CC3)ncc2F)[nH]c2ccc(C3CCN(C(=O)CN(C)C)CC3)cc12 on human TLR9 (Homo sapiens (Human), UniProt Q9NR96)? 5.84

Please tell me: pIC50 of CCc1c(-c2ccnc(F)c2)[nH]c2ccc(C3CCN(C4CCN(CC(C)C)CC4)CC3)cc12 , system human TLR9 (Homo sapiens (Human), UniProt Q9NR96)? 6.18

Return pIC50 measured with human TLR9 (Homo sapiens (Human), UniProt Q9NR96) given this molecule: Cc1cc(-c2[nH]c3ccc(C4CCN(C(=O)CNC5CCOCC5)CC4)cc3c2C(C)C)cc(C)n1 6.55

Return pIC50 measured with human TLR9 (Homo sapiens (Human), UniProt Q9NR96) given this molecule: Cc1cc(-c2[nH]c3ccc(C4CCN(C5CCOC5)CC4)cc3c2C(C)C)c(C)cn1 (stereo not shown) 5.87

Under human TLR9 (Homo sapiens (Human), UniProt Q9NR96): pIC50 value of Cc1cc(-c2[nH]c3ccc(C4CCN(C(=O)CCN(C)C)CC4)cc3c2C(C)C)cc(C)n1 ? 6.40

Provide the documented pIC50 with human TLR9 (Homo sapiens (Human), UniProt Q9NR96) as the system for COC(=O)C1CC(N2CCC(c3ccc4[nH]c(-c5ccnc(C)c5)c(C(C)C)c4c3)CC2)CCN1 (stereo not shown) 6.26

Item: Cc1cc(-c2[nH]c3ccc(C4CCN(C(=O)c5c(C)noc5C)CC4)cc3c2C(C)C)cc(C)n1 Test system: human TLR9 (Homo sapiens (Human), UniProt Q9NR96) Read-out: pIC50 Value: ? 5.26

What is its pIC50 for human TLR9 (Homo sapiens (Human), UniProt Q9NR96)? Entry: CCc1c(-c2ccnc(C(=O)OC)c2)[nH]c2ccc(C3CCN(C4CCN(CC(C)C)CC4)CC3)cc12 6.65

----------
Provide the recorded pIC50 for the entries that follow.
# Target under test: human TLR9 (Homo sapiens (Human))
# Measurement protocol: TLR9 inhibition reporter assay (HEK-Blue cells, SEAP reporter, ODN2006 stimulation)
# Conditions: read-out: TLR9 IC50, HEK-Blue cells overexpressing human TLR9, ODN2006 5 nM
The read-out pIC50 is expressed as -log10 of concentration in moles per litre.

// pIC50 lookup, key: Cc1cc(-c2[nH]c3ccc(C4CCN(CC(=O)NC5CC5)CC4)cc3c2C(C)C)cc(C)n1 6.19

Can you share its pIC50? I mean this molecule: Cc1cc(-c2[nH]c3ccc(C4CCN(C(=O)CNC(C)C)CC4)cc3c2C(C)C)cc(C)n1 6.31

For the molecule CCc1c(-c2ccnc(O)c2)[nH]c2ccc(C3CCN(C4CCN(CC(C)C)CC4)CC3)cc12 , what pIC50 is on record? 6.74

Please look up its pIC50: CCc1c(-c2ccnc(OC(F)F)c2)[nH]c2ccc(C3CCN(C4CCN(CC(C)C)CC4)CC3)cc12 [Example 774] 6.18

----------
# Target under test: human TLR7 (Homo sapiens (Human), UniProt Q9NYK1)
# Sequence (Q9NYK1 27-1049): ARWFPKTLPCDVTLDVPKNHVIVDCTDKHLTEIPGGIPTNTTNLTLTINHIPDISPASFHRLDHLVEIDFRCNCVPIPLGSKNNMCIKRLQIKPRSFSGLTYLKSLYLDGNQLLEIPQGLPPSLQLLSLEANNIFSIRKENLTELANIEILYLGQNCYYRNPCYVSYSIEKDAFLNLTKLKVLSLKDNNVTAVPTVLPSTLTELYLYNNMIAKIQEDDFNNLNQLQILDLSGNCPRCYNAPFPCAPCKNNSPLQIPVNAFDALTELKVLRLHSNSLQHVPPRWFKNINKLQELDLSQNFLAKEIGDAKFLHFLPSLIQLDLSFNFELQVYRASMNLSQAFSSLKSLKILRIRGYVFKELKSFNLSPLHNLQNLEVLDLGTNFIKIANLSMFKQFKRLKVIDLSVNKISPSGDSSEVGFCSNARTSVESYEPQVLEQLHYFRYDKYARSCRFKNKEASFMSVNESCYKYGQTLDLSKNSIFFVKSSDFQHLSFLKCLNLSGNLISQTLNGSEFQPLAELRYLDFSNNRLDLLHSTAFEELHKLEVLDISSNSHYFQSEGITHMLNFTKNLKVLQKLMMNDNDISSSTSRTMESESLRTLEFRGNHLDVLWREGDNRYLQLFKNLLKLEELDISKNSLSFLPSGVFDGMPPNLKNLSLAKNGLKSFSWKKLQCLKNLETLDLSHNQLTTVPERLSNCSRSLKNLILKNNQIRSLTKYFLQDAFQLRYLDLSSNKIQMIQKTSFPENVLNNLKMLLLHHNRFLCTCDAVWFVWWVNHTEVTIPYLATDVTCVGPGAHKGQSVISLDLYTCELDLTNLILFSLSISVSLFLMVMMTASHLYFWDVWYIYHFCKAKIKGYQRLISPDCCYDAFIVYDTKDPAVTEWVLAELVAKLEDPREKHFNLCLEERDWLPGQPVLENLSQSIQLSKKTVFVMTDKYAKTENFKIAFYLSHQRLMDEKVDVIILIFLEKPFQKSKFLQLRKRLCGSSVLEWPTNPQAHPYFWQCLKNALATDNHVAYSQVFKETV
# Measurement protocol: TLR7 inhibition reporter assay (HEK-Blue cells, SEAP reporter, gardiquimod stimulation)
# Assay type: cell-based
# Conditions: HEK-Blue cells overexpressing human TLR7, gardiquimod 7.5 μM
pIC50: −log10 of the molar value.
Respond with Yes for pIC50 values of 8 and above, No for values below.

State whether the measured pIC50 reaches 8, counting equality as reaching it, for Cc1cc(-c2[nH]c3ccc(C4CCN(Cc5ncco5)CC4)cc3c2C(C)C)c(C)cn1 No

State whether the measured pIC50 reaches 8, counting equality as reaching it, for Cc1cc(-c2[nH]c3ccc(C4CCN(CC(=O)N5C[C@@H](C(F)(F)F)C[C@H]5CO)CC4)cc3c2C(C)C)cc(C)n1 No

Decide: pIC50 of Cc1cc(-c2[nH]c3ccc(C4CCN(CC(=O)NC5CCOCC5)CC4)cc3c2C(C)C)cc(C)n1 >= 8? Yes

Is it the case that Cc1cc(-c2[nH]c3ccc(C4CCN(C(=O)CN5CC[C@@H](O)C5)CC4)cc3c2C(C)C)cc(C)n1 has pIC50 reaching or exceeding 8? Yes

Exam item: decide whether the reported pIC50 for Cc1cc(-c2[nH]c3ccc(C4CCN(C(=O)CN(C)C5COC5)CC4)cc3c2C(C)C)cc(C)n1 is at least 8. Yes

Has CCN(CC)CC(=O)N1CCC(c2ccc3[nH]c(-c4cc(C)nc(C)c4)c(C(C)C)c3c2)CC1 a recorded pIC50 greater than or equal to 8? Yes

----------
# Target under test: human TLR7 (Homo sapiens (Human), UniProt Q9NYK1)
# Measurement protocol: TLR7 inhibition reporter assay (HEK-Blue cells, SEAP reporter, gardiquimod stimulation)
# Type: cell-based
# Conditions: HEK-Blue cells overexpressing human TLR7, gardiquimod 7.5 μM
Property name: IC50 (nM)
// units = nM; emit number, no label

What does the data say about its IC50? Entry: CCNc1cc(-c2[nH]c3ccc(C4CCN(C5CCN(CC(C)C)CC5)CC4)cc3c2CC)ccn1 [Example 772] 9850

For the molecule shown here, Cc1cc(-c2[nH]c3ccc(C4CCN(Cc5c[nH]nn5)CC4)cc3c2C(C)C)c(C)cn1 [Example 690] , give the reported IC50. 11

Quick one: IC50 of CNCC(=O)N1CCC(c2ccc3[nH]c(-c4cc(C)ncc4C)c(C(C)C)c3c2)CC1 [Example 620] ? 8.1

IC50 for COc1ncc(CN2CCC(c3ccc4[nH]c(-c5cc(C)nc(C)c5)c(C(C)C)c4c3)CC2)cn1 [Example 430] ? 10.1

For the molecule shown here, Cc1cc(-c2[nH]c3ccc(C4CCN(C(=O)CN(C)C5COC5)CC4)cc3c2C(C)C)c(F)cn1 [Example 678] , give the reported IC50. 12.3

Quick check: IC50 of Cc1cc(-c2[nH]c3ccc(C4CCN(CC(=O)N(CCO)C(C)C)CC4)cc3c2C(C)C)cc(C)n1 [Example 299] ? 24

Value lookup for IC50; key = Cc1cc(-c2[nH]c3ccc(C4CCN(CC5CCNC5)CC4)cc3c2C(C)C)cc(C)n1 (stereo not drawn) [Example 466] 6.5

Which IC50 reading was recorded for the molecule Cc1cc(-c2[nH]c3ccc(C4CCN(C[C@@H]5CCNC5)CC4)cc3c2C(C)C)ccn1 [Example 738] ? 11.2

Requested field: IC50. Item: Cc1cc(-c2[nH]c3ccc(C4CCN(CCCO)CC4)cc3c2C(C)C)cc(C)n1 [Example 311] 1.8

Bench note: what IC50 did Cc1cc(-c2[nH]c3ccc(C4CCN(C(=O)c5ccon5)CC4)cc3c2C(C)C)cc(C)n1 [Example 203] show? 2

Dear colleague, I am looking for the recorded IC50 of the following molecule: CCc1c(-c2ccnc(OC)c2)[nH]c2ccc(C3CCN(C4CCN(C5CCCC5)CC4)CC3)cc12 [Example 785] 790

Requested field: IC50. Item: Cc1cc(-c2[nH]c3ccc(C4CCN(C(=O)C5CC(=O)N(C)C5)CC4)cc3c2C(C)C)cc(C)n1 (stereo not drawn) [Example 102] 7.5

Find the recorded IC50 belonging to Cc1cc(-c2[nH]c3ccc(C4CCN(C(=O)CN5C[C@@H](C(F)(F)F)C[C@H]5CO)CC4)cc3c2C(C)C)cc(C)n1 [Example 394] and report it. 14.6

Any idea what IC50 was measured for Cc1c(-c2[nH]c3ccc(C4CCNCC4)cc3c2C(C)C)ccnc1Cl [Example 35] ? 26.7

Would you kindly share the measured IC50 for Cc1cc(-c2[nH]c3ccc(C4CCN(C(=O)CN5C(=O)CN(C)C5=O)CC4)cc3c2C(C)C)cc(C)n1 [Example 160] ? 7.1
